- System: LS-174T
- measurement.description: Cytotoxicity assay, LS-174T (colon)
- condition.info: Homo sapiens, LS174T, read-out: Cytotoxicity IC50, LS-174T
measured.quantity: pIC50
Value format note: pIC50 is -log10 of concentration (mol/L); just state the number.

Ask: Sample COc1cc(/C=C/C(=O)CC(=O)/C=C/c2ccc(O)c(OC)c2)ccc1O — what was its pIC50?
Reply: 5.19
